experimental.system: human LPA1 receptor (Homo sapiens (Human), UniProt Q92633)
Sequence (Q92633 whole entry): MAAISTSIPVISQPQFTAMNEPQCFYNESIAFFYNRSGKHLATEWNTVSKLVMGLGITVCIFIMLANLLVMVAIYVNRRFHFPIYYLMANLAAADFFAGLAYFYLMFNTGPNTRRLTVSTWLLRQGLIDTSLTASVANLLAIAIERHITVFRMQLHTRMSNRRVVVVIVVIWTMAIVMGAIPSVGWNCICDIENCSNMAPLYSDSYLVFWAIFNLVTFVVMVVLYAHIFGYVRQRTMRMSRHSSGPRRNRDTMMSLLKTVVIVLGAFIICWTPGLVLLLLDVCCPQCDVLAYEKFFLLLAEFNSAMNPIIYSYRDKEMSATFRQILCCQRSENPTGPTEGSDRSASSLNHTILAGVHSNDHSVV
protocol.details: Beta-arrestin recruitment assay to determine IC50 values for human LPAR1
Format: cell-based
experimental.context: antagonist mode, Tango EDG2-bla U2OS cells, LPA 18:1 500 nM final
quantity.measured: IC50 (nM)

>>> print(df.to_string())
                                   compound                       experimental_system  quantity_measured  observed_measurement
0  Cc1ccc(NC(=O)C2(c3ccccc3C(C)C)CN(C(=O)NC3(C(=O)O)CC3)C2)c(OC(F)F)n1  human LPA1 receptor (Homo sapiens (Human), UniProt Q92633)               IC50                    46
1  Cc1ccc(NC(=O)C2(c3ccccc3C(C)C)CN(CCCC(C)(C)[N+](=O)[O-])C2)c(OC(F)F)n1  human LPA1 receptor (Homo sapiens (Human), UniProt Q92633)               IC50                    39
2  Cc1ccc(NC(=O)C2(c3ccccc3C(C)C)CCN(C(=O)OCC(=O)O)CC2)c(OC(F)F)n1 [Ex 14-3]  human LPA1 receptor (Homo sapiens (Human), UniProt Q92633)               IC50                     6
3  Cc1ccc(NC(=O)C2(c3ccccc3C(C)C)CN(C(=O)CN[C@H](C)CO)C2)c(OC(F)F)n1  human LPA1 receptor (Homo sapiens (Human), UniProt Q92633)               IC50                    10
4  COC(=O)C1(CN2CC(C(=O)Nc3ccc(C)nc3OC(F)F)(c3ccccc3C(C)C)C2)CC1  human LPA1 receptor (Homo sapiens (Human), UniProt Q92633)               IC50                   400

Attribution: patent US12344597B2
